For each entry below, report its MRT value.
experiment: Pharmacokinetics of AS and DHA in rat plasma after single and multiple intravenous AS injections (automated blood sampler, LC-MS/MS);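 note: blood drawn through a jugular vein catheter by an automated sampling system, plasma drug levels measured by LC-MS/MS with positive electrospray ionization against standard curves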; assay type: in vivo, Sprague-Dawley rats; conditions: male, Sprague-Dawley, rat, plasma, iv, 20 mg/kg, Chinese formulation (AS/NaHCO3), 20 mg/kg i.v. daily for 3 days, male rats, Period 2, Day 3
Answers are plain numbers, in min.

Q: Recorded MRT of C[C@H]1[C@H](OC(=O)CCC(=O)O)O[C@@H]2O[C@@]3(C)CC[C@H]4[C@H](C)CC[C@@H]1[C@@]24OO3 [AS, artesunate] , please.
A: 15.6

Further cases:
Q: Recorded MRT of C[C@H]1[C@@H](O)O[C@@H]2O[C@@]3(C)CC[C@H]4[C@H](C)CC[C@@H]1[C@@]24OO3 [DHA, dihydroartemisinin] , please.
A: 22.8
